species: Rattus norvegicus; assay: Open TG-GATES - Regimen: Single; assay type: toxicity, organism-based, Sprague-Dawley; set-up: regimen Single, gender Male, age 6 weeks; conditions: in vivo, po, 0 mg/kg, 6 h, tissue Blood, route gavage, dose level Control
value_type: Mono (%)
# unit: % | format: bare number

// below: answered compounds
Problem: Please look up its Mono: `COc1cc2c(c(OC)c1OC)-c1ccc(OC)c(=O)cc1[C@@H](NC(C)=O)CC2`
Solution: 6.6

Problem: Please look up its Mono: `CN(C)CCCN1c2ccccc2CCc2ccc(Cl)cc21`
Solution: 2.8

Problem: Please look up its Mono: COc1ccc2[nH]c([S+]([O-])Cc3ncc(C)c(OC)c3C)nc2c1 (centres undefined)
Solution: 3.8

Now consider the entry below.
Problem: Please look up its Mono: `CN1C(=O)CN=C(c2ccccc2)c2cc(Cl)ccc21`
Solution: 6.4
